Where do the numbers come from? From ChEMBL document CHEMBL1764973.

Entries and their pKi
target: Cannabinoid receptor 1 (Homo sapiens)
Sequence (P21554 whole entry): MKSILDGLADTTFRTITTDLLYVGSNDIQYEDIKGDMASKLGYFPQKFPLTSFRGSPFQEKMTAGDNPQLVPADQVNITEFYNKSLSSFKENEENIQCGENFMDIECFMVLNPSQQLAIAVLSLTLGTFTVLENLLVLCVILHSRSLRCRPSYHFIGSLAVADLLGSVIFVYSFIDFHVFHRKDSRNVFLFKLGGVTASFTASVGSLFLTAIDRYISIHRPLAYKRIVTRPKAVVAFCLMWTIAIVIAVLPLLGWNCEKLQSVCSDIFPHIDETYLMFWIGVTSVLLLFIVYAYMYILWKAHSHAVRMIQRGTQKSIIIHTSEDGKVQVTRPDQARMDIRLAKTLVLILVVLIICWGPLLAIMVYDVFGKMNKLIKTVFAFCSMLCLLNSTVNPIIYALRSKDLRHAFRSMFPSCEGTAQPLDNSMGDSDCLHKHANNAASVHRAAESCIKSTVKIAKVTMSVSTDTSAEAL
pKi: −log10 of the molar value.

Problem: I have this molecule here, "COc1ccc(-c2c(C#N)c(C(=O)NC3(C#N)CCOCC3)nn2-c2ccccc2I)cc1" , and I need its recorded pKi.
Solution: < 5.00

Problem: Try the molecule "Cc1c(C(=O)N(C)C2(C#N)CCOCC2)nn(-c2ccccc2Cl)c1-c1ccccc1"
Solution: < 5.00

----------
target: Translocator protein (Rattus norvegicus, UniProt P16257)
Sequence (P16257 whole entry, looked up): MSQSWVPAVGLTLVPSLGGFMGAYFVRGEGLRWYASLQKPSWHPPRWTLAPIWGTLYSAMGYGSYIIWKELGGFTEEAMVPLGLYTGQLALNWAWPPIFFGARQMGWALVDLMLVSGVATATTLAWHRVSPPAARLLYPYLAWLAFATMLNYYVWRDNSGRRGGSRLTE
reported metric: Ki (nM)
Note: unit nM is implicit; provide only the numeric part.

Problem: I have this compound here, "COc1ccc(-c2c(C)c(C(=O)NC3(C#N)CCCCC3)nn2-c2ccccc2Br)cc1" , and I need its recorded Ki.
Solution: 279

Problem: Try the compound "COc1ccc(-c2c(C#N)c(C(=O)NC3(C#N)CCOCC3)nn2-c2ccccc2I)cc1"
Solution: 1920

Problem: Try the compound "Cc1c(C(=O)NC2(C#N)CCOCC2)nn(-c2ccccc2Cl)c1-c1ccccc1"
Solution: 436

Problem: Try the compound "N#CC1(NC(=O)c2cc(-c3ccccc3)n(-c3ccccc3Br)n2)CCOCC1"
Solution: 3110

Problem: Try the compound "N#Cc1c(C(=O)NC2(C#N)CCOCC2)nn(-c2ccccc2Br)c1-c1ccccc1"
Solution: 3690

Problem: Try the compound "Cc1c(C(=O)N(C)C2(C#N)CCOCC2)nn(-c2ccccc2Cl)c1-c1ccccc1"
Solution: 880

----------
target: Kappa-type opioid receptor (Homo sapiens, UniProt P41145)
Sequence (P41145 whole entry): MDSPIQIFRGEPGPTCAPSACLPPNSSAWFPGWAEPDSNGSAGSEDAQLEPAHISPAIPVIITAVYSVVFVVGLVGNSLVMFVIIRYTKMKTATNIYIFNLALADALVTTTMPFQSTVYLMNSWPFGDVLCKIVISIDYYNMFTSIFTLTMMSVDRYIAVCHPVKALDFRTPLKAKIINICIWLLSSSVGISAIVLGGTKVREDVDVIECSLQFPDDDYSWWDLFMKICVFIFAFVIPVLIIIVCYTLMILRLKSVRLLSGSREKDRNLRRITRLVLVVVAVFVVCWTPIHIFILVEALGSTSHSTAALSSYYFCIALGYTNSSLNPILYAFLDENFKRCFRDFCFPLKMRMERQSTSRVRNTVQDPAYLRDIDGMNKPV
reported metric: Ki (nM)
Note: unit nM is implicit; provide only the numeric part.

Problem: I have this compound here, "COc1ccc(-c2c(C)c(C(=O)NC3(C#N)CCCCC3)nn2-c2ccccc2Br)cc1" , and I need its recorded Ki.
Solution: 597

----------
// each record: one item and its Ki for Cannabinoid receptor 1 (Homo sapiens, UniProt P21554)
The number alone won't do; follow it with the unit.

Examples from the recorded data:
COc1ccc(-c2c(C)c(C(=O)NC3(C#N)CCCCC3)nn2-c2ccccc2Br)cc1 | 0.0157 µM
COc1ccc(-c2c(C)c(C(=O)NC3(C#N)CCOCC3)nn2-c2cccc(Br)c2)cc1 | 0.68 µM

Problem: GET /values?readout=Ki&system=Cannabinoid receptor 1 (Homo sapiens, UniProt P21554)&item= "N#CC1(NC(=O)c2cc(-c3ccccc3)n(-c3ccccc3Br)n2)CCOCC1"
Solution: 0.297 µM

Problem: Try the compound "N#Cc1c(C(=O)NC2(C#N)CCOCC2)nn(-c2ccccc2Br)c1-c1ccccc1"
Solution: 0.437 µM

Problem: Try the compound "Cc1c(C(=O)NC2(C#N)CCOCC2)nn(-c2ccc(Br)cc2)c1-c1ccccc1"
Solution: 0.259 µM

----------
target: D(1B) dopamine receptor (Homo sapiens)
Sequence (P21918 whole entry): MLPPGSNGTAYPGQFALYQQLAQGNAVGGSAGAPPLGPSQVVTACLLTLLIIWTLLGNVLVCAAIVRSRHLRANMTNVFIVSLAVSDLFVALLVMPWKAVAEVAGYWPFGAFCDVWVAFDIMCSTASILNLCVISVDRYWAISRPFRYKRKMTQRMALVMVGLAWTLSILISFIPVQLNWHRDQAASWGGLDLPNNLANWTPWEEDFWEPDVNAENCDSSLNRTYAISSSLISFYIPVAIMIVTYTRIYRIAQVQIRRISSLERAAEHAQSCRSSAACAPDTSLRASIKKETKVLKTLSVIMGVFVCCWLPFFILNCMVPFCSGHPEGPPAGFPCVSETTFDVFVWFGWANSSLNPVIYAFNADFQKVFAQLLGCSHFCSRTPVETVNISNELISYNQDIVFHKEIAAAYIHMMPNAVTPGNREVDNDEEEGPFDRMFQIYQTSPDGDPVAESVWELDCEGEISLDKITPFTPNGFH
reported metric: Ki

Problem: I have this compound here, "COc1ccc(-c2c(C)c(C(=O)NC3(C#N)CCCCC3)nn2-c2ccccc2Br)cc1" , and I need its recorded Ki.
Solution: > 10 µM

----------
biological target: 5-hydroxytryptamine receptor 1D (Homo sapiens)
Sequence (P28221 whole entry): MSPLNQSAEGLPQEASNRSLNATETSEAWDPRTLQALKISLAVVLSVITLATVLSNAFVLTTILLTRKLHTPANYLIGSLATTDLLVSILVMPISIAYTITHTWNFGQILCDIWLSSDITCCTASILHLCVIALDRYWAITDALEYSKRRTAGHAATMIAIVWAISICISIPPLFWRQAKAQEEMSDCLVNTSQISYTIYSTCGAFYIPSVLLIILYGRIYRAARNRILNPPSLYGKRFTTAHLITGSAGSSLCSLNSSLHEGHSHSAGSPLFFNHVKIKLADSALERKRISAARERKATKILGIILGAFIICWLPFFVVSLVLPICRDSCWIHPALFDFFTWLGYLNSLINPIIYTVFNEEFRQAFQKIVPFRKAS
reported metric: Ki

Problem: I have this compound here, "COc1ccc(-c2c(C)c(C(=O)NC3(C#N)CCCCC3)nn2-c2ccccc2Br)cc1" , and I need its recorded Ki.
Solution: > 10 µM

----------
molecular target: UniProt P34972; test: Displacement of [3H]CP55940 from CB2 receptor
Sequence (P34972 whole entry): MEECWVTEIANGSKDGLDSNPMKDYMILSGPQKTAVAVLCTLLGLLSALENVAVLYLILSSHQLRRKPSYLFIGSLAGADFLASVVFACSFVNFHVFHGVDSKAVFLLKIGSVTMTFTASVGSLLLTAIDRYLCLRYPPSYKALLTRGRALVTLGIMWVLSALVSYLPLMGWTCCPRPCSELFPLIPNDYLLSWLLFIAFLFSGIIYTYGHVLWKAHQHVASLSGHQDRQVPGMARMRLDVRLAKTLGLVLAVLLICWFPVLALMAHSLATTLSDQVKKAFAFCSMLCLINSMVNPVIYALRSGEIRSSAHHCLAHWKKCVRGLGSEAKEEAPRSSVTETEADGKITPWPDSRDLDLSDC
reported metric: pKi
# pKi is unitless: minus log10 of the molar concentration; print number only

Problem: I have this compound here, "COc1ccc(-c2c(C#N)c(C(=O)NC3(C#N)CCOCC3)nn2-c2ccccc2I)cc1" , and I need its recorded pKi.
Solution: 5.63

Problem: Try the compound "COc1ccc(-c2c(C)c(C(=O)NC3(C#N)CCOCC3)nn2-c2ccccc2F)cc1"
Solution: 5.61

Problem: Try the compound "COc1ccc(-c2c(C)c(C(=O)NC3(C#N)CCCCC3)nn2-c2ccccc2Br)cc1"
Solution: 5.56

Problem: Try the compound "Cc1c(C(=O)NC2(C#N)CCOCC2)nn(-c2ccc(Br)cc2)c1-c1ccccc1"
Solution: 6.18

Problem: Try the compound "COc1ccc(-c2c(C)c(C(=O)NC3(C#N)CCOCC3)nn2-c2cccc(Br)c2)cc1"
Solution: 6.63
